B1: TPPP (parent)
chain: LCKDCQVIDGRNVTVTDVDIVFSK

# Variants of: B1
# test-description: protein stability index of a GFP-peptide fusion (GPS, HEK-293T) (PSI 1-6); higher = more stable;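 further: lentivirally expressed fusions sorted by FACS into six bins by GFP to DsRed ratio, PSI derived from sequencing read proportions per bin multiplied by bin number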
# experimental-conditions: c terminus: a fixed tail appended
measured-property: protein stability index
Keep the answer to the number alone.

| ordered-residues | protein stability index |
| --- | --- |
| LCKDCQVIDGRNVTVNDVDIVFSK | 2.59 |
| LCKDCQVIDGRNVWVTDVDIVFSK | 2.52 |
| LCKDCQVIDGRNVTVTDVPIVFSK | 2.56 |
| LCKDCQVIDGRQVTVTDVDIVFSK | 2.3 |
| LCCDCQVIDGRNVTVTDVDIVFSK | 1.89 |

Form field protein stability index, entry `LCKDCQVIDGRNVTNTDVDIVFSK` : 2.95

Form field protein stability index, entry `LCKDCQVIDRRNVTVTDVDIVFSK` : 2.51

Form field protein stability index, entry `LCKDCQVIDGRNVTVTDVDISFSK` : 3.34

Form field protein stability index, entry `DCKDCQVIDGRNVTVTDVDIVFSK` : 4.05

Form field protein stability index, entry `LCKDCQVIDGRNVTVTDVDICFSK` : 2.53
